Reported % Cytotoxicity (LDH release relative to maximum LDH control) values for the following compounds.
System: MCF-7 cells
Assay text: LDH cytotoxicity assay
Format: cell-based
Reported conditions: MCF-7, 25 µM, 48 h; 25 µM
Report as a plain number; the unit % is understood.

{"columns": ["Compound", "Numeric value"],
 "data": [
  ["O=C(/C=C/c1c[nH]c2ccc(Cl)cc12)C[C@@H]1O[C@H](CO)[C@@H](O)[C@H](O)[C@@H]1O", 8],
  ["O=[N+]([O-])c1ccc2[nH]cc(-c3cc(C[C@@H]4O[C@H](CO)[C@@H](O)[C@H](O)[C@H]4O)no3)c2c1", 31],
  ["OC[C@H]1O[C@@H](CC2=NNC(c3c[nH]c4ccccc34)C2)[C@H](O)[C@@H](O)[C@H]1O (stereo partly shown)", 22]
]}

Would you kindly look at the next entry?
Give the measured % Cytotoxicity (LDH release relative to maximum LDH control) of "O=C(/C=C/c1c[nH]c2ccccc12)C[C@@H]1O[C@H](CO)[C@@H](O)[C@H](O)[C@H]1O" .
13

Attribution: paper PMC7170901
